Value source: PubChem BioAssay (NCATS)

Experiment: BET inhibitor-based combinations targeting novel dependencies in MECOM-rearranged (r) AML: UCSD-AML1 cell line (AID 2202235); also: nearly all actives have a fitted effect of over 40% in size
Conditions: UCSD-AML1 AML cells viability, CellTiter-Glo, 48 h; series mostly up to 46 µM
Inconclusive results are not listed. Activity calls are given as the source filed them. Calls follow the shape of the dose curve; as a rule, active = well fitted inhibition curve with a large enough effect; inconclusive = small, poorly fitted or top-dose-only effect; inactive = no such curve, though single readings can be large or run the other way.
Respond only with the outcome that fits, drawn from 1 = active, -1 = inactive

Data request: Any idea what this test logged for `C/C(O)=C(\C#N)C(=O)Nc1cc(Br)ccc1Br` ?
Data returned: -1

Data request: Any idea what this test logged for `N[C@@H](Cc1ccc(N(CCCl)CCCl)cc1)C(=O)O` ?
Data returned: 1

Data request: Any idea what this test logged for `C/C(=C\c1csc(C)n1)[C@@H]1C[C@@H]2O[C@@H]2CCC[C@H](C)[C@H](O)[C@@H](C)C(=O)C(C)(C)[C@@H](O)CC(=O)O1` ?
Data returned: 1

Data request: Any idea what this test logged for COC12C(COC(N)=O)C3=C(C(=O)C(C)=C(N)C3=O)N1CC1C2N1C (centres undefined) ?
Data returned: -1

Data request: Any idea what this test logged for O=P1(NCCCl)OCCCN1CCCl (centres undefined) ?
Data returned: -1

Data request: Any idea what this test logged for `CC(C)[C@]12O[C@H]1[C@@H]1O[C@@]13[C@@]1(C)CCC4=C(COC4=O)[C@@H]1C[C@@H]1O[C@@]13C2=O` ?
Data returned: 1

Data request: Any idea what this test logged for COc1cccc2c1C(=O)c1c(O)c3c(c(O)c1C2=O)C[C@@](O)(C(=O)CO)CC3OC1CC(N2CCOC(OC)C2)C(O)C(C)O1 (some centres undefined) ?
Data returned: 1

Data request: Any idea what this test logged for `C[C@]12COC(=O)C[C@@H]1CC[C@@H]1[C@@H]2CC[C@@]2(C)[C@H]1CC[C@]2(C)O` ?
Data returned: -1

Data request: Any idea what this test logged for `C/C=C(/C)C(=O)O[C@H]1C(C)=C2[C@H]([C@@H]1OC(=O)CCCCCCC)[C@@](C)(OC(C)=O)C[C@H](OC(=O)CCC)[C@@]1(O)[C@H]2OC(=O)[C@@]1(C)O` ?
Data returned: 1

Data request: Any idea what this test logged for `CC(=O)Nc1ccc(OC[C@](C)(O)C(=O)Nc2ccc([N+](=O)[O-])c(C(F)(F)F)c2)cc1` ?
Data returned: -1

Data request: Any idea what this test logged for `O=S(=O)(F)Cc1ccccc1` ?
Data returned: -1

Data request: Any idea what this test logged for `O=c1cccc2n1CC1CNC[C@H]2C1` ?
Data returned: -1

Data request: Any idea what this test logged for `O=C(O)CCCc1ccc(N(CCCl)CCCl)cc1` ?
Data returned: 1

Data request: Any idea what this test logged for `COc1ccc(C(=O)c2c(C)n(CCN3CCOCC3)c3ccccc23)cc1` ?
Data returned: 1

Data request: Any idea what this test logged for `CCN(CC)C(=O)c1ccc(C2=CC3(CCNCC3)Oc3cccc(O)c32)cc1` ?
Data returned: -1

Data request: Any idea what this test logged for `C[C@]12CC[C@H]3[C@@H](CCC4=CC(=O)CC[C@@]43C)[C@H]1CC[C@H]2OC(=O)CCC1CCCC1` ?
Data returned: -1

Data request: Any idea what this test logged for `Cc1sc2c(c1C)C(c1ccc(Cl)cc1)=N[C@@H](CC(=O)OC(C)(C)C)c1nnc(C)n1-2` ?
Data returned: 1

Data request: Any idea what this test logged for `COc1ccc(N(C(=O)Oc2c(C)cccc2C)c2ccnc(Nc3ccc(N4CCN(C)CC4)cc3)n2)c(OC)c1` ?
Data returned: -1

Data request: Any idea what this test logged for `CCNC(=O)C[C@@H]1N=C(c2ccc(Cl)cc2)c2cc(OC)ccc2-n2c(C)nnc21` ?
Data returned: 1
